Values from the supplement of paper PMC10724198

System: Saccharomyces cerevisiae;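 further: PSI is a weighted mean of sequencing reads over stability bins, variants kept only with over 10 reads, mCherry proximal and sfGFP distal, peptide attached via GGGS linker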
RUN_DESCRIPTION: protein stability index of tFT-peptide fusion (C-terminal peptide) (PSI (0-1 scale)); higher = more stable (slower turnover)
CONDITION: genetic background: cdc34-1; temperature: 37 C
OBSERVABLE: protein stability index
// response body must contain only the number

INPUT: Reported protein stability index for GWCLLRVLVLVW : what is it?
OUTPUT: 0.0502

INPUT: Reported protein stability index for WFAHGLRHFRIL : what is it?
OUTPUT: 0.653

INPUT: Reported protein stability index for LVGLLASWLRFN : what is it?
OUTPUT: 0.579

INPUT: Reported protein stability index for GLDLLTKFSKEC : what is it?
OUTPUT: 0.678

INPUT: Reported protein stability index for VVLVVVWWGGVE : what is it?
OUTPUT: 0.242

INPUT: Reported protein stability index for LSLFPFLPSPCP : what is it?
OUTPUT: 0.736

INPUT: Reported protein stability index for WGAHRVRVSRIL : what is it?
OUTPUT: 0.686

INPUT: Reported protein stability index for GRGVRLRVRLLL : what is it?
OUTPUT: 0.664

INPUT: Reported protein stability index for VSLCVVYGLVVG : what is it?
OUTPUT: 0.337

INPUT: Reported protein stability index for VLSLYWLIISRL : what is it?
OUTPUT: 0.717

INPUT: Reported protein stability index for VVFWWGHLLVSA : what is it?
OUTPUT: 0.0353

INPUT: Reported protein stability index for KKKEILVYIIQE : what is it?
OUTPUT: 0.598

INPUT: Reported protein stability index for RSFGGRPWVLFL : what is it?
OUTPUT: 0.623

INPUT: Reported protein stability index for SWTAYSYQWVFF : what is it?
OUTPUT: 0.407

INPUT: Reported protein stability index for CLGLFPSLLRLS : what is it?
OUTPUT: 0.666

INPUT: Reported protein stability index for GCDVWCLVLRMG : what is it?
OUTPUT: 0.651

INPUT: Reported protein stability index for VVCPCIIYVPGV : what is it?
OUTPUT: 0.619

INPUT: Reported protein stability index for WDPKISVFVLID : what is it?
OUTPUT: 0.439

INPUT: Reported protein stability index for FSCLCLCVATSG : what is it?
OUTPUT: 0.348

INPUT: Reported protein stability index for VFFRCVCCLSVF : what is it?
OUTPUT: 0.388

INPUT: Reported protein stability index for FGGICFAVLLCR : what is it?
OUTPUT: 0.246

INPUT: Reported protein stability index for SLAPPPPLLILR : what is it?
OUTPUT: 0.403

INPUT: Reported protein stability index for GLFFLCLLSMCF : what is it?
OUTPUT: 0.34

INPUT: Reported protein stability index for CPALTFCLLLSS : what is it?
OUTPUT: 0.539

INPUT: Reported protein stability index for PWGVGLACLFLL : what is it?
OUTPUT: 0.469

INPUT: Reported protein stability index for RYKIEKKKLMNN : what is it?
OUTPUT: 0.667

INPUT: Reported protein stability index for FFFSLFFVLFFA : what is it?
OUTPUT: 0.284

INPUT: Reported protein stability index for LSFYLRAVRASL : what is it?
OUTPUT: 0.777

INPUT: Reported protein stability index for YFICLSLVLFSY : what is it?
OUTPUT: 0.163

INPUT: Reported protein stability index for CSLFYVFYRRLL : what is it?
OUTPUT: 0.595

INPUT: Reported protein stability index for VQLFCLRREMII : what is it?
OUTPUT: 0.544

INPUT: Reported protein stability index for ETCFSFVCSVQC : what is it?
OUTPUT: 0.328

INPUT: Reported protein stability index for ALMTFTLVFTYM : what is it?
OUTPUT: 0.168

INPUT: Reported protein stability index for VLWVYLFLFVIF : what is it?
OUTPUT: 0.266

INPUT: Reported protein stability index for EGLDVRILIQVI : what is it?
OUTPUT: 0.0334

INPUT: Reported protein stability index for RFFKMREAIRIS : what is it?
OUTPUT: 0.567

INPUT: Reported protein stability index for LCVWRRAIVWVG : what is it?
OUTPUT: 0.363

INPUT: Reported protein stability index for LVLALTPFLHSF : what is it?
OUTPUT: 0.639

INPUT: Reported protein stability index for VGFIVCFFFSFG : what is it?
OUTPUT: 0.334

INPUT: Reported protein stability index for FYAAILCLLFSC : what is it?
OUTPUT: 0.478

INPUT: Reported protein stability index for SYVFCYICGVQS : what is it?
OUTPUT: 0.607

INPUT: Reported protein stability index for LFVGLVSFRIGA : what is it?
OUTPUT: 0.563

INPUT: Reported protein stability index for ISSAGHNIRFLA : what is it?
OUTPUT: 0.599

INPUT: Reported protein stability index for FFLLFCASFLRC : what is it?
OUTPUT: 0.281

INPUT: Reported protein stability index for CLLWVVWSLLWV : what is it?
OUTPUT: 0.346

INPUT: Reported protein stability index for VPRGAALIFLCF : what is it?
OUTPUT: 0.574

INPUT: Reported protein stability index for SMFFLFFFFFFF : what is it?
OUTPUT: 0.396

INPUT: Reported protein stability index for ACVRFPLVLVVF : what is it?
OUTPUT: 0.0242

INPUT: Reported protein stability index for SRICRTIIQLKQ : what is it?
OUTPUT: 0.561

INPUT: Reported protein stability index for LFHFPSWIFCLL : what is it?
OUTPUT: 0.562

INPUT: Reported protein stability index for EKKKKKRKNKIK : what is it?
OUTPUT: 0.691

INPUT: Reported protein stability index for QIGSMLGVQGVG : what is it?
OUTPUT: 0.454

INPUT: Reported protein stability index for FLVFRPPALFLR : what is it?
OUTPUT: 0.0932

INPUT: Reported protein stability index for FFCCVLFSIVVY : what is it?
OUTPUT: 0.0536

INPUT: Reported protein stability index for WVVVLFAYRGLR : what is it?
OUTPUT: 0.57

INPUT: Reported protein stability index for LFLTSFRFLRLF : what is it?
OUTPUT: 0.337

INPUT: Reported protein stability index for CVMWFLLSAYYL : what is it?
OUTPUT: 0.358

INPUT: Reported protein stability index for FVFLVLGPYAMF : what is it?
OUTPUT: 0.444

INPUT: Reported protein stability index for VIGFGEVWIRCV : what is it?
OUTPUT: 0.358

INPUT: Reported protein stability index for CFFPFLCFVVGA : what is it?
OUTPUT: 0.482

INPUT: Reported protein stability index for HHRLRQGLRRIN : what is it?
OUTPUT: 0.64

INPUT: Reported protein stability index for PLLLLLPSLLLV : what is it?
OUTPUT: 0.363

INPUT: Reported protein stability index for LLVFSLLRPFLF : what is it?
OUTPUT: 0.615

INPUT: Reported protein stability index for IFRVTGFPIYIF : what is it?
OUTPUT: 0.327

INPUT: Reported protein stability index for VFLFSWYIFSVF : what is it?
OUTPUT: 0.206

INPUT: Reported protein stability index for FSFSAFARFLVI : what is it?
OUTPUT: 0.618

INPUT: Reported protein stability index for GDSVRVIIFCLN : what is it?
OUTPUT: 0.465

INPUT: Reported protein stability index for WRVRFRLLAGFC : what is it?
OUTPUT: 0.347

INPUT: Reported protein stability index for FHSALIAIAAYV : what is it?
OUTPUT: 0.135

INPUT: Reported protein stability index for FILLIFLSLLSP : what is it?
OUTPUT: 0.352

INPUT: Reported protein stability index for PSRLSFALLFHL : what is it?
OUTPUT: 0.648

INPUT: Reported protein stability index for FLACYSSFLFVS : what is it?
OUTPUT: 0.417

INPUT: Reported protein stability index for ILCYVWLVFSGF : what is it?
OUTPUT: 0.225

INPUT: Reported protein stability index for YTVRRVWLVRSR : what is it?
OUTPUT: 0.445

INPUT: Reported protein stability index for LASLSRPFRAKF : what is it?
OUTPUT: 0.967

INPUT: Reported protein stability index for VCALHSAPLLIF : what is it?
OUTPUT: 0.453

INPUT: Reported protein stability index for SYFSVTLFFTVI : what is it?
OUTPUT: 0.281

INPUT: Reported protein stability index for NAGSHHAAVKLG : what is it?
OUTPUT: 0.664

INPUT: Reported protein stability index for EFVACFRLLVHG : what is it?
OUTPUT: 0.308

INPUT: Reported protein stability index for PPCSLLPPPPAP : what is it?
OUTPUT: 0.624

INPUT: Reported protein stability index for RFCRVERAILLR : what is it?
OUTPUT: 0.334

INPUT: Reported protein stability index for FLFWVLLVGCSF : what is it?
OUTPUT: 0.244
